target: KRAS WT (Homo sapiens, UniProt P01116+P62937); test: Ras-Raf disruption/FRET/MOA assay, KRAS WT; assay type: biochemical; settings: disruption of BRAF RBD binding, with Cyclophilin A; read-out: KRAS WT FRET IC50
Sequence (P01116 1-169 isoform P01116-2 limits assumed): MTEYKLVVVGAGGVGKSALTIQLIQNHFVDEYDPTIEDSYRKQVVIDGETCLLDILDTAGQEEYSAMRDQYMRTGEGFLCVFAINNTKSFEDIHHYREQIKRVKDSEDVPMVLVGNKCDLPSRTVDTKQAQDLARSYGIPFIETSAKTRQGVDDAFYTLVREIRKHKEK
Sequence (P62937 whole entry): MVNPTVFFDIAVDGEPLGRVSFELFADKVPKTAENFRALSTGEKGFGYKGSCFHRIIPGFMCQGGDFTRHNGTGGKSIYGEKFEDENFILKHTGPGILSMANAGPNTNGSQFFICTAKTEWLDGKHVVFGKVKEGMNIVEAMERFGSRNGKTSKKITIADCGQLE
IC50: recorded values

Consider the worked cases shown below.
- COMPOUND: "CCn1c(-c2cccnc2[C@H](C)OC)c2c3cc(ccc31)-c1cc(O)cc(c1)C[C@H](NC(=O)[C@H](C(C)C)N1CC[C@]3(CCCN(C(=O)[C@@H]4CN4)C3)C1=O)C(=O)N1CCC[C@H](N1)C(=O)OCC(C)(C)C2 [Compound 192]"
  TESTED ON: "KRAS WT (Homo sapiens, UniProt P01116+P62937)"
  IC50: "100 to 1000 nM"
- COMPOUND: "CCn1c(-c2cccnc2[C@H](C)OC)c2c3cc(ccc31)-c1csc(n1)C[C@H](NC(=O)[C@H](C(C)C)N(C)C(=O)N1CCC[C@@H](N(C)C(=O)[C@@H]3CN3)C1)C(=O)N1CCC[C@H](N1)C(=O)OCC(C)(C)C2 (atropisomer, axis not shown) [Compound 291]"
  TESTED ON: "KRAS WT (Homo sapiens, UniProt P01116+P62937)"
  IC50: "10 to 100 nM"
- COMPOUND: "CCn1c(-c2cnccc2COC)c2c3cc(ccc31)-c1cc(O)cc(c1)C[C@H](NC(=O)[C@H](C(C)C)N(C)C(=O)CN(C)C(=O)[C@@H]1CN1S(C)(=O)=O)C(=O)N1CCC[C@H](N1)C(=O)OCC(C)(C)C2 (some centres unmarked) [Compound 37]"
  TESTED ON: "KRAS WT (Homo sapiens, UniProt P01116+P62937)"
  IC50: "10 to 100 nM"

// query I am curious: what IC50 value has been reported for CCn1c(-c2cccnc2[C@H](C)OC)c2c3cc(ccc31)-c1csc(n1)C[C@H](NC(=O)[C@H](C1CCCC1)N1CC[C@]3(CCN(C(=O)[C@@H]4N[C@@H]4C4CC4)C3)C1=O)C(=O)N1CCC[C@H](N1)C(=O)OCC(C)(C)C2 [Compound 234] ?
// result 1000 to 10000 nM

// query Lookup CCn1c(-c2cccnc2[C@H](C)OC)c2c3cc(ccc31)-c1csc(n1)C[C@H](NC(=O)[C@H](C(C)C)N(C)C(=O)N1CCC[C@@H](N(C)C(=O)[C@H]3CN3)C1)C(=O)N1CCC[C@H](N1)C(=O)OCC(C)(C)C2 (atropisomer, axis not shown) [Compound 289]
// result 10 to 100 nM

// query Try this compound too: CCn1c(-c2cnccc2COC)c2c3cc(ccc31)-c1cc(O)cc(c1)C[C@H](NC(=O)[C@H](C(C)C)N(C)C(=O)[C@H]1CCN(C(=O)N3C[C@@H]3C(=O)OC)C1)C(=O)N1CCC[C@H](N1)C(=O)OCC(C)(C)C2 [Compound 94]
// result 100 to 1000 nM

// query Here is the next compound: CCn1c(-c2cnccc2COC)c2c3cc(ccc31)-c1cc(O)cc(c1)C[C@H](NC(=O)[C@H](C(C)C)N(C)C(=O)CN(C)C(=O)[C@@H]1[C@H](C3CC3)N1[S@@+]([O-])C(C)(C)C)C(=O)N1CCC[C@H](N1)C(=O)OCC(C)(C)C2 (some centres unmarked) [Compound 101]
// result 100 to 1000 nM

// query // query: CCn1c(-c2cccnc2[C@H](C)OC)c2c3cc(ccc31)-c1cc(cc(C(F)F)c1)C[C@H](NC(=O)[C@H](C1CCCC1)N1CC[C@]3(CCN(C(=O)[C@H]4CN4)C3)C1=O)C(=O)N1CCC[C@H](N1)C(=O)OCC(C)(C)C2 [Compound 233]
// result 1000 to 10000 nM
